List of pIC50 values.
Test system: MDA-MB-436 cells (BRCA1 mutation)
PROCEDURE_DETAILS: Anti-proliferation assay on MDA-MB-436 cells (BRCA1 mutation)
Type: cell-based
MEASUREMENT_CONDITIONS: Homo sapiens, MDA-MB-436, 168 h; incubated for 7 days, chemiluminescent cell viability; read-out: IC50, proliferation inhibition on MDA-MB-436 cells (BRCA1 mutation)
Experimental: MDA-MB-436 cells (BRCA1 mutation) were seeded in black 96-well plates with clear bottoms. Each well contained 135 μL of cell suspension with 3,500 MDA-MB-436 cells (BRCA1 mutation). The cell plate was incubated overnight in a CO2 incubator. A 400× stock solution of the test compound was prepared. […] 78 μL of medium was added to an intermediate plate. Subsequently, 2 μL of the serially diluted compound per well was transferred to the corresponding wells of the intermediate plate. […]
# pIC50 is unitless: minus log10 of the molar concentration; print number only

Use the examples below as a reference point.
COMPOUND: CNC(=O)c1ccc(C2=CCN(Cc3ccc4c([nH]c(=O)c5cccn54)c3F)CC2)c(F)n1 [Compound 28]
RECORDED_NUMBER: 9.43

COMPOUND: CNC(=S)c1ccc(N2CCN(Cc3ccc4nc(C)c(=O)[nH]c4c3F)CC2)c(F)n1 [Trifluoroacetate of compound 5]
RECORDED_NUMBER: 8.92

COMPOUND: [2H]C([2H])([2H])NC(=O)c1ccc(N2CCN(Cc3ccc4c([nH]c(=O)c5cccnc54)c3F)CC2)c(F)n1 [Compound 29]
RECORDED_NUMBER: 8.94

Inquiry: I have this compound here, CNC(=O)c1ccc(N2CCN(Cc3ccc4c([nH]c(=O)c5cc(F)cnc54)c3F)CC2)c(Cl)n1 [Compound 50] , and I need its recorded pIC50.
Reply text: 9.39

Inquiry: I have this compound here, CNC(=O)c1ccc(N2CCN(Cc3cc(F)c4nc(C)c(=O)[nH]c4c3F)CC2)c(F)n1 [Trifluoroacetate of compound 22] , and I need its recorded pIC50.
Reply text: 8.24

Inquiry: I have this compound here, [2H]C([2H])(c1ccc2c([nH]c(=O)c3cccnc32)c1F)N1CCN(c2ccc(C(=O)NC)nc2F)CC1 [Compound 44] , and I need its recorded pIC50.
Reply text: 9.19

Inquiry: I have this compound here, [2H]C([2H])([2H])NC(=O)c1ccc(C2=CCN(Cc3ccc4c([nH]c(=O)c5cccnc54)c3F)CC2)c(F)n1 [Compound 31] , and I need its recorded pIC50.
Reply text: 9.12

Inquiry: I have this compound here, [2H]C([2H])(c1ccc2c([nH]c(=O)c3cccnc32)c1F)N1CCN(c2ccc(C(=O)NC)nc2Cl)CC1 [Compound 45] , and I need its recorded pIC50.
Reply text: 9.57

Inquiry: I have this compound here, CNC(=O)c1ccc(C2=CCN(Cc3ccc4c([nH]c(=O)c5cccnc54)c3F)CC2)c(F)n1 [Compound 27] , and I need its recorded pIC50.
Reply text: 9.16

---

PROCEDURE_DETAILS: In vitro liver microsomal stability, human liver microsomes
MEASUREMENT_LABEL: half-life at 1 μM (h)
Reply numerically in h, unit not repeated.

Inquiry: I have this molecule here, CNC(=O)c1ccc(C2=CCN(Cc3ccc4c([nH]c(=O)c5cccnc54)c3F)CC2)c(F)n1 , and I need its recorded half-life at 1 μM.
Reply text: 2.2
